Reference source for all entries: ChEMBL document CHEMBL2303647

Collected AC50 values appear next to each entry.
biological target: Luciferin 4-monooxygenase (Photinus pyralis, UniProt P08659); conditions: read-out: AC50
Sequence (P08659 whole entry): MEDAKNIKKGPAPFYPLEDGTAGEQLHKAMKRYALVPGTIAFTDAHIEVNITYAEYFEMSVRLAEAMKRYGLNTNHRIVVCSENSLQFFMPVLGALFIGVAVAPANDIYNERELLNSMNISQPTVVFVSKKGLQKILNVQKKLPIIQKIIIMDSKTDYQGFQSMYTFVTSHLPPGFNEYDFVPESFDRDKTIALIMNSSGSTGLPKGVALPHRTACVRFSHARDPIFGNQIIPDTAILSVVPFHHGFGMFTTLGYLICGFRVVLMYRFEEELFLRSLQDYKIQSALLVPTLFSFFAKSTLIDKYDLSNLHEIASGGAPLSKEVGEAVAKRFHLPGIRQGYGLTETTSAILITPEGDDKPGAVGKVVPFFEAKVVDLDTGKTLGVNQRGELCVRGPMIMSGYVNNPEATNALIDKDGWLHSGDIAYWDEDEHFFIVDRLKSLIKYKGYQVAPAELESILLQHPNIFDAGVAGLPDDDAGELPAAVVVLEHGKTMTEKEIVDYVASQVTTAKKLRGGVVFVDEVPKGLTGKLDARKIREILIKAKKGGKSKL
Description: GSK_PKIS: Inhibition of Firefly Luciferase (Data from PubChem: AID 652016) [NIH NCATS]
Express the result in µM but write the number alone.

Some solved cases for reference:
{"COMPOUND": "COc1c(C(N)=O)cc(-c2ccc(Cl)cc2)cc1-c1ccc(S(N)(=O)=O)cc1 [GSK-711701A]", "AC50 / µM": 29.1}
{"COMPOUND": "COc1cc(C=NNc2ncnc3c2cnn3Cc2ccccc2)ccc1O [GW643971X]", "AC50 / µM": 29.1}
{"COMPOUND": "Cc1ccc(C(=O)NC2CCC2)cc1-c1ccc(C(=O)NCC2CC2)cc1 [GW782912X]", "AC50 / µM": 29.1}
{"COMPOUND": "NC(=O)c1ccc(Oc2nccc(-c3c(-c4ccc(F)cc4)ncn3C3CCNCC3)n2)cc1", "AC50 / µM": 29.1}

AC50 recorded for this compound, N#Cc1c(NC(=O)c2cccc3ccccc23)sc2c1CCCC2 [GW620972X] , is 18.3

AC50 recorded for this compound, COc1cccc(-n2cnc3c(N/N=C/c4ccncc4)ncnc32)c1 [GW813360X] , is 16.3

AC50 recorded for this compound, COc1ccccc1Nc1ncc(-c2ccccc2)o1.Cl [GW577921A] , is 1.03

AC50 recorded for this compound, COc1cccc(-n2ncc3c(N/N=C/c4cccc(F)c4)ncnc32)c1 [GW817394X] , is 18.3

AC50 recorded for this compound, COc1cccc(-n2ncc3c(N/N=C/c4ccc(F)cc4)ncnc32)c1 [GW817396X] , is 32.6

AC50 recorded for this compound, Fc1ccc(-c2nn3ncccc3c2-c2ccnc(Nc3ccc4c(c3)OCCO4)n2)cc1 [GW827099X] , is 18.3

AC50 recorded for this compound, NS(=O)(=O)c1ccc(Nc2cc(-c3cccc(O)c3)n[nH]2)cc1 [GW831090X] , is 20.6

* * *

Collected AC50 values appear next to each entry.
target: Coelenterazine h 2-monooxygenase (Renilla reniformis); settings: read-out: AC50
Sequence (P27652 whole entry): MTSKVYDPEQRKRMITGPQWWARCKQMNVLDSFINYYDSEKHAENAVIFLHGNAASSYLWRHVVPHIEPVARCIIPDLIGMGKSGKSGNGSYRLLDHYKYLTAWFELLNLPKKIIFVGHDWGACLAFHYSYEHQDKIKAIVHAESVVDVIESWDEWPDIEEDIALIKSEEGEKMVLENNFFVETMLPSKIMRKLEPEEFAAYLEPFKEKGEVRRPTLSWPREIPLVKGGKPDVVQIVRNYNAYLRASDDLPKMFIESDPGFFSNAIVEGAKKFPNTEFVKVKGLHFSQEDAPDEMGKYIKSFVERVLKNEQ
Description: GSK_PKIS: Inhibition of Sea Pansy Luciferase (Data from PubChem: AID 652015) [NIH NCATS]

{"COMPOUND": "Cc1cccc2c1NC(=O)/C2=N\\Nc1ccc(S(N)(=O)=O)cc1 [GW282536X]", "TARGET SYSTEM": "Coelenterazine h 2-monooxygenase (Renilla reniformis)", "AC50": "18.3 µM"}
{"COMPOUND": "CCN1CCC(CC(=O)Nc2n[nH]c3nc(-c4cccs4)c(Br)cc23)CC1.O=C(O)C(O)C(O)C(=O)O", "TARGET SYSTEM": "Coelenterazine h 2-monooxygenase (Renilla reniformis)", "AC50": "29.1 µM"}
{"COMPOUND": "Nc1ncc(-c2cccc(S(N)(=O)=O)c2)c2scc(-c3ccc(F)c(Cl)c3)c12 [GW856804X]", "TARGET SYSTEM": "Coelenterazine h 2-monooxygenase (Renilla reniformis)", "AC50": "36.6 µM"}
{"COMPOUND": "Cn1cc(C=C2C(=O)Nc3cccnc32)c2ccccc21 [GW441756X]", "TARGET SYSTEM": "Coelenterazine h 2-monooxygenase (Renilla reniformis)", "AC50": "20.6 µM"}
{"COMPOUND": "NC(=O)c1sc(-n2cnc3ccccc32)cc1OCc1ccccc1Br [GSK-1023156A]", "TARGET SYSTEM": "Coelenterazine h 2-monooxygenase (Renilla reniformis)", "AC50": "25.9 µM"}
{"COMPOUND": "CCS(=O)(=O)c1ccc(OC)c(Nc2ncc(-c3cccc(OC)c3)o2)c1 [GW580509X]", "TARGET SYSTEM": "Coelenterazine h 2-monooxygenase (Renilla reniformis)", "AC50": "18.3 µM"}
{"COMPOUND": "COc1ccccc1-c1cc(/C=C2\\C(=O)Nc3ncc(Br)cc32)cc(Br)c1O [GW442130X]", "TARGET SYSTEM": "Coelenterazine h 2-monooxygenase (Renilla reniformis)", "AC50": "8.19 µM"}
{"COMPOUND": "NS(=O)(=O)c1cccc(-c2cc3ccncc3cc2OCc2ccccc2)c1 [GSK-980961A]", "TARGET SYSTEM": "Coelenterazine h 2-monooxygenase (Renilla reniformis)", "AC50": "25.9 µM"}

Could you now look at the following compound, please?
AC50 recorded for this compound, c1ccc(Cc2nc3ccc(Nc4ncnc5ccccc45)cc3[nH]2)cc1 , is 18.3 µM
